# assayed.system: T1, NHERF3_1, Q5T2W1
# T1 sequence (Q5T2W1 4-100, limits assumed, looked up): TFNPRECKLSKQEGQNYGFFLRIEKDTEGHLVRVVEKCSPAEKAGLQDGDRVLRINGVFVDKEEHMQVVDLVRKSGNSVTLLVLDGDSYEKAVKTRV
# measurement.protocol: holdup assay
# Design: key: below the threshold = too weak to quantify, mostly under pKd 3.1 to 4
# measurement.parameters: plain residues with an end cap or a label only (N-terminal biotin on a linker: ado-ado)
Task for the reader: assign each of the following binders its reported pKd.
One number for each entry.

These solved cases illustrate the format of a correct answer.
- binder: "REEPDHSTEV [CCRL2, O00421]"
  pKd: 4.57
- binder: "EPQYQPGENL [SRC, P12931]"
  pKd: 3.82

Attention now shifts to the item below.
q: Fill in the blank: the reported pKd of DTKNYKQTSV [CRIPT, Q9P021] is ____.
a: 4.59
